assayed_system: EP3 receptor (Rattus norvegicus)
Construct: gene Ptger3; native receptor in locus coeruleus neurons, brain slices
assay_text: inhibition of LC neuron firing, single-unit extracellular recording; shifted by EP3 antagonist L-798, […]
condition_info: read-out: (EC50)
pEC50: −log10 of the molar value.
endpoint_label: pEC50

I. CCCCC(C)(O)C/C=C/[C@H]1[C@H](O)CC(=O)[C@@H]1CCCCCCC(=O)O (relative stereo) [misoprostol free acid]
II. CS(=O)(=O)NC(=O)CCC/C=C\C[C@H]1C(=O)C[C@@H](O)[C@@H]1/C=C/[C@@H](O)COc1ccccc1
QUERY: Form: Entry with minimum pEC50 (choose one): I / II Identify your pick by its label.
RESULT: I

----------
assayed_system: EP3 receptor (Rattus norvegicus, UniProt P34980)
Construct: gene Ptger3; native receptor in locus coeruleus neurons, brain slices
Sequence (P34980 1-365): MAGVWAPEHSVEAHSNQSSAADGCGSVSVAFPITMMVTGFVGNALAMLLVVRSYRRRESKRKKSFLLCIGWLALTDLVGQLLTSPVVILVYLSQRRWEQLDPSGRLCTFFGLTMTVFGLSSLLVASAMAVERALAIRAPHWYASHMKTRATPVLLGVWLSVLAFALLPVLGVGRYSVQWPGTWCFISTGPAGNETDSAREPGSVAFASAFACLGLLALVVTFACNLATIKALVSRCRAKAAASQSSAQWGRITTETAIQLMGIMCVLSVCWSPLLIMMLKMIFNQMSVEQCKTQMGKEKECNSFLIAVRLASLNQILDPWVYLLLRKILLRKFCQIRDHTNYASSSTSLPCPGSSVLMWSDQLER
assay_text: inhibition of LC neuron firing, single-unit extracellular recording; shifted by EP3 antagonist L-798, […]
endpoint_label: pEC50
Please note pEC50 is a logarithmic value: minus log10 of concentration in mol/L. Answer with that number alone.

QUERY: Entry under review: CCCCC[C@H](O)/C=C/[C@H]1[C@H](O)CC(=O)[C@@H]1C/C=C\CCCC(=O)O [prostaglandin E2] . Reported pEC50?
RESULT: 6.96
